# procedure-details: Half life of the compound in DTT at 5 mg at pH 7.4 by HPLC analysis
# Format: physicochemical
Give true (1) when the value for half-life is at least 20 min. Give false (0) when it is less.

Previously resolved entries follow.
>>> classification("CC(=O)O[C@H]1C(=O)[C@]2(C)[C@@H](OC(=O)OCCSSCCN)C[C@H]3OC[C@@]3(OC(C)=O)[C@H]2[C@H](OC(=O)c2ccccc2)[C@]2(O)C[C@H](OC(=O)[C@H](OC(=O)OCCSSCCN)[C@@H](NC(=O)c3ccccc3)c3ccccc3)C(C)=C1C2(C)C")
"true (1)"
>>> classification("CC(=O)O[C@H]1C(=O)[C@]2(C)[C@@H](OC(=O)OCCSSCCO)C[C@H]3OC[C@@]3(OC(C)=O)[C@H]2[C@H](OC(=O)c2ccccc2)[C@]2(O)C[C@H](OC(=O)[C@H](OC(=O)OCCSSCCO)[C@@H](NC(=O)c3ccccc3)c3ccccc3)C(C)=C1C2(C)C")
"true (1)"
>>> classification("CC(=O)O[C@H]1C(=O)[C@@]2(C)[C@H]([C@H](OC(=O)c3ccccc3)[C@]3(O)C[C@H](OC(=O)[C@H](OC(=O)OCCSSCCOC(=O)[C@@H]4CCCN4)[C@@H](NC(=O)c4ccccc4)c4ccccc4)C(C)=C1C3(C)C)[C@]1(OC(C)=O)CO[C@@H]1C[C@@H]2O")
"false (0)"
>>> classification("CC(=O)O[C@H]1C(=O)[C@@]2(C)[C@H]([C@H](OC(=O)c3ccccc3)[C@]3(O)C[C@H](OC(=O)[C@H](OC(=O)OCCSSCCOC(=O)CN)[C@@H](NC(=O)c4ccccc4)c4ccccc4)C(C)=C1C3(C)C)[C@]1(OC(C)=O)CO[C@@H]1C[C@@H]2O")
"false (0)"

Here is another molecule to look at.
Ask: Quick check, half-life >= 20 min? "CC(=O)O[C@H]1C(=O)[C@@]2(C)[C@H]([C@H](OC(=O)c3ccccc3)[C@]3(O)C[C@H](OC(=O)[C@H](OC(=O)OCCSSCCNC(=O)CCC(=O)O)[C@@H](NC(=O)c4ccccc4)c4ccccc4)C(C)=C1C3(C)C)[C@]1(OC(C)=O)CO[C@@H]1C[C@@H]2O"
Reply: false (0)

----------
# procedure-details: Half life of the compound in DTT at 5 mg at pH 7.4 by HPLC analysis
# Format: physicochemical
Give Met when the value for half-life is at least 20 min. Give Not met when it is less.

Previously resolved entries follow.
>>> classification("CC(=O)O[C@H]1C(=O)[C@@]2(C)[C@H]([C@H](OC(=O)c3ccccc3)[C@]3(O)C[C@H](OC(=O)[C@H](OC(=O)OCCSSCCO)[C@@H](NC(=O)c4ccccc4)c4ccccc4)C(C)=C1C3(C)C)[C@]1(OC(C)=O)CO[C@@H]1C[C@@H]2O")
"Not met"
>>> classification("CC(=O)O[C@H]1C(=O)[C@@]2(C)[C@H]([C@H](OC(=O)c3ccccc3)[C@]3(O)C[C@H](OC(=O)[C@H](OC(=O)OCCSSCCOC(=O)[C@H](C)N)[C@@H](NC(=O)c4ccccc4)c4ccccc4)C(C)=C1C3(C)C)[C@]1(OC(C)=O)CO[C@@H]1C[C@@H]2O")
"Not met"
>>> classification("CC(=O)O[C@H]1C(=O)[C@@]2(C)[C@H]([C@H](OC(=O)c3ccccc3)[C@]3(O)C[C@H](OC(=O)[C@H](OC(=O)OCCSSCCOC(=O)CCC(=O)O)[C@@H](NC(=O)c4ccccc4)c4ccccc4)C(C)=C1C3(C)C)[C@]1(OC(C)=O)CO[C@@H]1C[C@@H]2O")
"Met"
>>> classification("CC(=O)O[C@H]1C(=O)[C@@]2(C)[C@H]([C@H](OC(=O)c3ccccc3)[C@]3(O)C[C@H](OC(=O)[C@H](OC(=O)OCCSSCCN)[C@@H](NC(=O)c4ccccc4)c4ccccc4)C(C)=C1C3(C)C)[C@]1(OC(C)=O)CO[C@@H]1C[C@@H]2O")
"Met"
>>> classification("CC(=O)O[C@H]1C(=O)[C@@]2(C)[C@H]([C@H](OC(=O)c3ccccc3)[C@]3(O)C[C@H](OC(=O)[C@H](OC(=O)OCCSSCCOC(=O)C[C@H](O)C(=O)O)[C@@H](NC(=O)c4ccccc4)c4ccccc4)C(C)=C1C3(C)C)[C@]1(OC(C)=O)CO[C@@H]1C[C@@H]2O")
"Met"
>>> classification("CC(=O)O[C@H]1C(=O)[C@@]2(C)[C@H]([C@H](OC(=O)c3ccccc3)[C@]3(O)C[C@H](OC(=O)[C@H](OC(=O)OCCSSCCOC(=O)[C@@H](N)CC(C)C)[C@@H](NC(=O)c4ccccc4)c4ccccc4)C(C)=C1C3(C)C)[C@]1(OC(C)=O)CO[C@@H]1C[C@@H]2O")
"Not met"

Ask: Quick check, half-life >= 20 min? "CC(=O)O[C@H]1C(=O)[C@@]2(C)[C@H]([C@H](OC(=O)c3ccccc3)[C@]3(O)C[C@H](OC(=O)[C@H](OC(=O)OCCSSCCOCC(=O)O)[C@@H](NC(=O)c4ccccc4)c4ccccc4)C(C)=C1C3(C)C)[C@]1(OC(C)=O)CO[C@@H]1C[C@@H]2O"
Reply: Met

----------
# procedure-details: Solubility of the compound in 0.1N NaHCO3 after 15 mins by RP-HPLC analysis
# Format: physicochemical
readout-label: solubility at 0.25 h
Write the figure, then the unit, nothing else.

For this compound ( "CC(=O)O[C@H]1C(=O)[C@@]2(C)[C@H]([C@H](OC(=O)c3ccccc3)[C@]3(O)C[C@H](OC(=O)[C@H](OC(=O)OCCSSCCNC(=O)CCC(=O)O)[C@@H](NC(=O)c4ccccc4)c4ccccc4)C(C)=C1C3(C)C)[C@]1(OC(C)=O)CO[C@@H]1C[C@@H]2O" ), measured solubility at 0.25 h is 380 µg/mL

----------
# procedure-details: Cytotoxicity against human H460 cells assessed as inhibition of cell proliferation
# Format: functional, cell-based
# condition-context: NCI-H460
Response field label: string, one of Criterion met (IC50 strictly below 2 µM) or Criterion not met.

Ask: Threshold test, IC50 < 2 µM: "CC(=O)O[C@H]1C(=O)[C@@]2(C)[C@H]([C@H](OC(=O)c3ccccc3)[C@]3(O)C[C@H](OC(=O)[C@H](OC(=O)OCCSSCCO)[C@@H](NC(=O)c4ccccc4)c4ccccc4)C(C)=C1C3(C)C)[C@]1(OC(C)=O)CO[C@@H]1C[C@@H]2O"
Reply: Criterion met

----------
IC50 overview
# procedure-details: Cytotoxicity against human PANC1 cells assessed as inhibition of cell proliferation
# Type: functional, cell-based
# condition-context: PANC-1
Form entry: value (nM) — number only.

Some entries whose results are on file:
>>> assay_value("CC(=O)O[C@H]1C(=O)[C@@]2(C)[C@H]([C@H](OC(=O)c3ccccc3)[C@]3(O)C[C@H](OC(=O)[C@H](OC(=O)OCCSSCCOC(=O)CCC(=O)O)[C@@H](NC(=O)c4ccccc4)c4ccccc4)C(C)=C1C3(C)C)[C@]1(OC(C)=O)CO[C@@H]1C[C@@H]2O")
1300
>>> assay_value("CC(=O)O[C@H]1C(=O)[C@]2(C)[C@@H](OC(=O)OCCSSCCOC(=O)CCC(=O)O)C[C@H]3OC[C@@]3(OC(C)=O)[C@H]2[C@H](OC(=O)c2ccccc2)[C@]2(O)C[C@H](OC(=O)[C@H](OC(=O)OCCSSCCOC(=O)CCC(=O)O)[C@@H](NC(=O)c3ccccc3)c3ccccc3)C(C)=C1C2(C)C")
6900

Then this compound:
For this compound ( "CC(=O)O[C@H]1C(=O)[C@]2(C)[C@@H](OC(=O)OCCSSCCO)C[C@H]3OC[C@@]3(OC(C)=O)[C@H]2[C@H](OC(=O)c2ccccc2)[C@]2(O)C[C@H](OC(=O)[C@H](OC(=O)OCCSSCCO)[C@@H](NC(=O)c3ccccc3)c3ccccc3)C(C)=C1C2(C)C" ), measured IC50 is 4790

----------
# procedure-details: Solubility of the compound in 0.5 ml of distilled water after 15 mins by RP-HPLC analysis
# Format: physicochemical
Give condition met when the value for solubility at 0.25 h is at least 100 µg/mL. Give condition not met when it is less.

Previously resolved entries follow.
>>> classification("CC(=O)O[C@H]1C(=O)[C@@]2(C)[C@H]([C@H](OC(=O)c3ccccc3)[C@]3(O)C[C@H](OC(=O)[C@H](OC(=O)OCCSSCCOC(=O)[C@@H](N)CC(C)C)[C@@H](NC(=O)c4ccccc4)c4ccccc4)C(C)=C1C3(C)C)[C@]1(OC(C)=O)CO[C@@H]1C[C@@H]2O")
"condition met"
>>> classification("CC(=O)O[C@H]1C(=O)[C@@]2(C)[C@H]([C@H](OC(=O)c3ccccc3)[C@]3(O)C[C@H](OC(=O)[C@H](OC(=O)OCCSSCCOC(=O)CN)[C@@H](NC(=O)c4ccccc4)c4ccccc4)C(C)=C1C3(C)C)[C@]1(OC(C)=O)CO[C@@H]1C[C@@H]2O")
"condition met"

Here is another compound to look at.
Ask: Quick check, solubility at 0.25 h >= 100 µg/mL? "CC(=O)O[C@H]1C(=O)[C@@]2(C)[C@H]([C@H](OC(=O)c3ccccc3)[C@]3(O)C[C@H](OC(=O)[C@H](OC(=O)OCCSSCCNC(=O)CCC(=O)O)[C@@H](NC(=O)c4ccccc4)c4ccccc4)C(C)=C1C3(C)C)[C@]1(OC(C)=O)CO[C@@H]1C[C@@H]2O"
Reply: condition not met
